- Measurement Target: hGPR65 (Homo sapiens, UniProt Q8IYL9)
- Construct: expressed in transfected cells; host or cells: HeLa (ATCC CCL-2), lentiviral transduction, pLX317
- Sequence (Q8IYL9 whole entry): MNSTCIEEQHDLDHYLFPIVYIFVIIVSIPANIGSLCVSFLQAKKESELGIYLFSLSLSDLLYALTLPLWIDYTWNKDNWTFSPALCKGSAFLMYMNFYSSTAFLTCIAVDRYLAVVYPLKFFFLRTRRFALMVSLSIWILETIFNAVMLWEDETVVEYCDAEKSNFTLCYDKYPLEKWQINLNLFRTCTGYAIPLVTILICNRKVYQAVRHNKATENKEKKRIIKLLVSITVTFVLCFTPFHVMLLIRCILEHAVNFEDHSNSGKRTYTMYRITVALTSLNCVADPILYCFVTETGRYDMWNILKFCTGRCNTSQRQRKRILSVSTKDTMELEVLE
- Assay Remarks: cAMP detection in HeLa expression cell line, hGPR65
- Assay type: cell-based
- Run Conditions: 1st hGPR column pair; NA = no activity; read-out: hGPR EC50
Test Readout: pEC50
Remember the convention: pEC50 equals -log10 of concentration in molar.

{"Smiles Notation": "COc1cccc(-c2cc(O)n3ncc(C(=O)Nc4ccc(C)cc4)c3n2)c1", "pEC50": 5.89}
{"Smiles Notation": "Cc1ccc(NC(=O)c2cnn3c(O)cc(-c4ccc(COC(C)C)cc4)nc23)cn1", "pEC50": 6.00}

Moving on to another molecule below.
Q: GET /values?readout=pEC50&item= `CNC(=O)c1ccc(-c2cc(O)n3ncc(C(=O)Nc4ccc(C)cc4)c3n2)cc1`
Result: 4.58
